System: Plasmodium falciparum
Assay: Minimum inhibitory concentration against Plasmodium falciparum NF-54 after 40 hrs
Type: functional
experimentalEndpoint: MIC (µg/mL)
Return type: number; implicit unit µg/mL.

Consider the worked cases shown below.
CC1(C)N=C(N)N=C(N)N1c1ccc(Cl)cc1 [CYCLOGUANIL] :: 64
COc1cc(-c2cc(SC)n(-c3nc(NCc4ccccc4)nc(NCc4ccccc4)n3)n2)cc(OC)c1OC :: 2
COc1ccc(-c2cc(SC)n(-c3nc(NCCCN4CCOCC4)nc(NCCCN4CCOCC4)n3)n2)cc1OC :: 10
COc1cc(-c2cc(SC)n(-c3nc(N4CCN(c5ccccc5)CC4)nc(N4CCN(c5ccccc5)CC4)n3)n2)cc(OC)c1OC :: 50
COc1ccc(-c2cc(SC)n(-c3nc(NC4CCCCC4)nc(NC4CCCCC4)n3)n2)cc1OC :: 50

Let's switch to this compound now.
Ask: Data request, read-out MIC, for `COc1cc(-c2cc(SC)n(-c3nc(NC4CCCCC4)nc(NC4CCCCC4)n3)n2)cc(OC)c1OC`
Reply: 2

All values here come from ChEMBL document CHEMBL1143493.
